From: PubChem BioAssay AID248

Tested on: L1210 leukemia ip in BDF1 mice, survival T/C
Assay: NCI In Vivo Anticancer Drug Screen. Data for tumor model L1210 Leukemia (intraperitoneal) in B6D2F1 (BDF1) mice
Conditions: endpoint: mean survival time; dose: 100.0 mg/kg/injection; schedule: Q01DX009 (ip); vehicle: Klucel (hydroxypropylcellulose) (HPC); higher = longer survival
Toxic doses and inconclusive results are not listed.
reportedEndpoint: T/C

- O=[N+]([O-])c1ccc(N2CCCC2)c([N+](=O)[O-])c1: 101 % of control
- CCCCCCCCCCCCCCCCn1/c(=N/N=C/c2ccccc2S(=O)(=O)O)sc2ccccc21: 106 % of control
- NC(=O)c1ccccc1C(N)=O: 97 % of control
- Cc1cc(N(C)C)c([N+](=O)[O-])cc1C=O: 98 % of control
- O=S(=O)(CCCBr)NC1CCCCC1: 96 % of control
- CCOc1ccccc1NC(=S)NC(=O)c1ccc(OC)cc1: 104 % of control
